Cited source for all entries: paper PMC10447463

This section presents substances with their documented Tht rel to blank (42.1851851851852) values.
- Assay type: physicochemical
- experimental setup: ThT fluorescence relative to blank, blank = 42.1851851851852
readout name: Tht rel to blank (42.1851851851852)

- substance: "KYKYQY [KB1]"
  readout value: 6.106
- substance: "KLKLKLQL [TG16]"
  readout value: 1.572
- substance: "KFKQFFNMWQ [JG5]"
  readout value: 1.589
- substance: "HHHHKAKAKAKAWWWW [TM8]"
  readout value: 3.672
- substance: "CKFKQFFNMWQ [CK13]"
  readout value: 27.7
- substance: "KIKIQIC [TM112 / CN11]"
  readout value: 4.12
- substance: "CKIKQIINM [BL1]"
  readout value: 14.67

====

This section presents substances with their documented Tht category (> 1.5 to blank = +) values.
- Format: physicochemical
- experimental setup: category 1/0
readout name: Tht category (> 1.5 to blank = +)

- substance: "KIKIQI [JJA4]"
  readout name: "Tht category (> 1.5 to blank = +)"
  readout value: "0 (ThT-inactive (N-Fold <2))"
- substance: "CKFKQFFNM [CK14]"
  readout name: "Tht category (> 1.5 to blank = +)"
  readout value: "1 (ThT. Cat is 1, if Rel. ThT >2)"
- substance: "RGDCKIKIQINM [TM45]"
  readout name: "Tht category (> 1.5 to blank = +)"
  readout value: "0 (ThT-inactive (N-Fold <2))"
- substance: "KVKVQVVV [TG8]"
  readout name: "Tht category (> 1.5 to blank = +)"
  readout value: "0 (ThT-inactive (N-Fold <2))"
- substance: "KIKIKIKI [TM13]"
  readout name: "Tht category (> 1.5 to blank = +)"
  readout value: "1 (ThT. Cat is 1, if Rel. ThT >2)"
- substance: "CQFQFQF [QBL4]"
  readout name: "Tht category (> 1.5 to blank = +)"
  readout value: "1 (ThT. Cat is 1, if Rel. ThT >2)"
- substance: "QCKAKAQANMWQ [CK22]"
  readout name: "Tht category (> 1.5 to blank = +)"
  readout value: "0 (ThT-inactive (N-Fold <2))"
- substance: "HHHHKIKIQINMYYYY [TM16]"
  readout name: "Tht category (> 1.5 to blank = +)"
  readout value: "1 (ThT. Cat is 1, if Rel. ThT >2)"
- substance: "QCKFKFQFNMWQ [CK7]"
  readout name: "Tht category (> 1.5 to blank = +)"
  readout value: "0 (ThT-inactive (N-Fold <2))"
- substance: "QCKAKAQA [CK24]"
  readout name: "Tht category (> 1.5 to blank = +)"
  readout value: "0 (ThT-inactive (N-Fold <2))"
- substance: "KVKVKVQV [JG14 / TG14]"
  readout name: "Tht category (> 1.5 to blank = +)"
  readout value: "1 (ThT. Cat is 1, if Rel. ThT >2)"
- substance: "MKIKIQINMWQ [TM52]"
  readout name: "Tht category (> 1.5 to blank = +)"
  readout value: "1 (ThT. Cat is 1, if Rel. ThT >2)"
- substance: "CKAKAQA [TM155]"
  readout name: "Tht category (> 1.5 to blank = +)"
  readout value: "0 (ThT-inactive (N-Fold <2))"
- substance: "QCKIKQII [CK6]"
  readout name: "Tht category (> 1.5 to blank = +)"
  readout value: "1 (ThT. Cat is 1, if Rel. ThT >2)"
- substance: "KFKFQFNMW [BL5 / KB13]"
  readout name: "Tht category (> 1.5 to blank = +)"
  readout value: "0 (ThT-inactive (N-Fold <2))"
- substance: "HLHLPLL [CN14]"
  readout name: "Tht category (> 1.5 to blank = +)"
  readout value: "0 (ThT-inactive (N-Fold <2))"
- substance: "CKIKIQINM [MG2]"
  readout name: "Tht category (> 1.5 to blank = +)"
  readout value: "1 (ThT. Cat is 1, if Rel. ThT >2)"
- substance: "KLKQLL [KM27 / psis14]"
  readout name: "Tht category (> 1.5 to blank = +)"
  readout value: "0 (ThT-inactive (N-Fold <2))"
- substance: "KIKIKIKIWWWW [TM12]"
  readout name: "Tht category (> 1.5 to blank = +)"
  readout value: "1 (ThT. Cat is 1, if Rel. ThT >2)"
- substance: "QCKIKIQINMWQ [EF-C opt]"
  readout name: "Tht category (> 1.5 to blank = +)"
  readout value: "1 (ThT. Cat is 1, if Rel. ThT >2)"
- substance: "KIKIQINMWWQ [VH11]"
  readout name: "Tht category (> 1.5 to blank = +)"
  readout value: "0 (ThT-inactive (N-Fold <2))"
- substance: "RGDKIKIQINMWQ [MG9a]"
  readout name: "Tht category (> 1.5 to blank = +)"
  readout value: "0 (ThT-inactive (N-Fold <2))"
- substance: "KFKFQF [JJA6]"
  readout name: "Tht category (> 1.5 to blank = +)"
  readout value: "0 (ThT-inactive (N-Fold <2))"
- substance: "KIKIQINMW [JGB1 /TM85]"
  readout name: "Tht category (> 1.5 to blank = +)"
  readout value: "1 (ThT. Cat is 1, if Rel. ThT >2)"
- substance: "KAKAQANMWQ [JG3]"
  readout name: "Tht category (> 1.5 to blank = +)"
  readout value: "0 (ThT-inactive (N-Fold <2))"
- substance: "HHHHKAKAKAKAWWWW [TM8]"
  readout name: "Tht category (> 1.5 to blank = +)"
  readout value: "1 (ThT. Cat is 1, if Rel. ThT >2)"
- substance: "HHHHKIKIKIKIYYYY [TM6]"
  readout name: "Tht category (> 1.5 to blank = +)"
  readout value: "1 (ThT. Cat is 1, if Rel. ThT >2)"
- substance: "CKFKQFF [CK15]"
  readout name: "Tht category (> 1.5 to blank = +)"
  readout value: "0 (ThT-inactive (N-Fold <2))"
- substance: "KIKIQINMWQRGD [VH17-II]"
  readout name: "Tht category (> 1.5 to blank = +)"
  readout value: "0 (ThT-inactive (N-Fold <2))"
- substance: "RLRLTLC [CN13]"
  readout name: "Tht category (> 1.5 to blank = +)"
  readout value: "0 (ThT-inactive (N-Fold <2))"
- substance: "CKFKFQFNMW [KB14]"
  readout name: "Tht category (> 1.5 to blank = +)"
  readout value: "1 (ThT. Cat is 1, if Rel. ThT >2)"
- substance: "KIKIQIW [TM69]"
  readout name: "Tht category (> 1.5 to blank = +)"
  readout value: "1 (ThT. Cat is 1, if Rel. ThT >2)"
- substance: "KFKFQFW [TM71]"
  readout name: "Tht category (> 1.5 to blank = +)"
  readout value: "1 (ThT. Cat is 1, if Rel. ThT >2)"
- substance: "KFKFQFN [BL7]"
  readout name: "Tht category (> 1.5 to blank = +)"
  readout value: "0 (ThT-inactive (N-Fold <2))"
- substance: "HHHHKAKAKAKAYYYY [TM10]"
  readout name: "Tht category (> 1.5 to blank = +)"
  readout value: "0 (ThT-inactive (N-Fold <2))"
- substance: "CKFKFQFNM [BL3]"
  readout name: "Tht category (> 1.5 to blank = +)"
  readout value: "1 (ThT. Cat is 1, if Rel. ThT >2)"
- substance: "QCKIKIQI [CK3]"
  readout name: "Tht category (> 1.5 to blank = +)"
  readout value: "1 (ThT. Cat is 1, if Rel. ThT >2)"
- substance: "KIKQII [msis21]"
  readout name: "Tht category (> 1.5 to blank = +)"
  readout value: "0 (ThT-inactive (N-Fold <2))"
- substance: "CRFRVPF [CN8]"
  readout name: "Tht category (> 1.5 to blank = +)"
  readout value: "0 (ThT-inactive (N-Fold <2))"
- substance: "CEIEIQI [AR2/ TM142]"
  readout name: "Tht category (> 1.5 to blank = +)"
  readout value: "1 (ThT. Cat is 1, if Rel. ThT >2)"
- substance: "KFKFKFQF [TG18]"
  readout name: "Tht category (> 1.5 to blank = +)"
  readout value: "1 (ThT. Cat is 1, if Rel. ThT >2)"
- substance: "QCKFKQFFNMWQ [CK10]"
  readout name: "Tht category (> 1.5 to blank = +)"
  readout value: "1 (ThT. Cat is 1, if Rel. ThT >2)"
- substance: "KAKAQANM [TM152]"
  readout name: "Tht category (> 1.5 to blank = +)"
  readout value: "0 (ThT-inactive (N-Fold <2))"
- substance: "KAKAKAQA [TG15]"
  readout name: "Tht category (> 1.5 to blank = +)"
  readout value: "0 (ThT-inactive (N-Fold <2))"
- substance: "KIKQIINMWQ [JG2]"
  readout name: "Tht category (> 1.5 to blank = +)"
  readout value: "1 (ThT. Cat is 1, if Rel. ThT >2)"
- substance: "CKFKQFFNMWQ [CK13]"
  readout name: "Tht category (> 1.5 to blank = +)"
  readout value: "1 (ThT. Cat is 1, if Rel. ThT >2)"
- substance: "CKIKIQIII [AR0 / F19]"
  readout name: "Tht category (> 1.5 to blank = +)"
  readout value: "1 (ThT. Cat is 1, if Rel. ThT >2)"
- substance: "CEIEIQINMWQ [TM143]"
  readout name: "Tht category (> 1.5 to blank = +)"
  readout value: "1 (ThT. Cat is 1, if Rel. ThT >2)"
- substance: "KLKLKLQL [TG16]"
  readout name: "Tht category (> 1.5 to blank = +)"
  readout value: "0 (ThT-inactive (N-Fold <2))"
- substance: "HHHHKIKIKIKIWWWW [TM4]"
  readout name: "Tht category (> 1.5 to blank = +)"
  readout value: "1 (ThT. Cat is 1, if Rel. ThT >2)"
- substance: "KFKQFFNMWQ [JG5]"
  readout name: "Tht category (> 1.5 to blank = +)"
  readout value: "0 (ThT-inactive (N-Fold <2))"
- substance: "HIHIQIC [CN12]"
  readout name: "Tht category (> 1.5 to blank = +)"
  readout value: "1 (ThT. Cat is 1, if Rel. ThT >2)"
- substance: "CSISIQI [TM141]"
  readout name: "Tht category (> 1.5 to blank = +)"
  readout value: "1 (ThT. Cat is 1, if Rel. ThT >2)"
- substance: "CKYKYQY [KB2]"
  readout name: "Tht category (> 1.5 to blank = +)"
  readout value: "1 (ThT. Cat is 1, if Rel. ThT >2)"
- substance: "KAKAQA [JJA2 / TM153]"
  readout name: "Tht category (> 1.5 to blank = +)"
  readout value: "0 (ThT-inactive (N-Fold <2))"
